Test system: Musca domestica (houseflies - adults)
Test: Contact test on houseflies - adults (MD), Cotton wool/sugar, mortality
Format: in vivo
Conditions: 72 h, 500 ppm, contact, 3 days, read-out: MD grading of mortality
Each entry below lists one item and its recorded mortality at 500 ppm value.

>  <Compound>
Cc1c(COC(=O)C(c2cnc(C(C)(C)C)nc2)C(C)(C)C)cccc1-c1ccccc1 (racemic) [Compound 3]

>  <Target Or System>
Musca domestica (houseflies - adults)

>  <mortality at 500 ppm>
< 50%

$$$$
>  <Compound>
COCc1c(F)c(F)c(COC(=O)C(c2cnc(C3(C)CCCCC3)nc2)C(C)(C)C)c(F)c1F (racemic) [Compound 207]

>  <Target Or System>
Musca domestica (houseflies - adults)

>  <mortality at 500 ppm>
< 50%

$$$$
>  <Compound>
COCc1c(F)c(F)c(COC(=O)C(c2cnc(C3CC3)nc2)C(C)(C)C)c(F)c1F (racemic) [Compound 135]

>  <Target Or System>
Musca domestica (houseflies - adults)

>  <mortality at 500 ppm>
80 to 100%

$$$$
>  <Compound>
C[C@@H](OC(=O)[C@@H](c1cnc(C(C)(C)C)nc1)C(C)(C)C)c1cccc(Oc2ccc(Cl)cc2)n1 (racemic) [Compound 181]

>  <Target Or System>
Musca domestica (houseflies - adults)

>  <mortality at 500 ppm>
80 to 100%

$$$$
>  <Compound>
C[C@@H](OC(=O)[C@@H](c1cnc(C(C)(C)C)nc1)C(C)(C)C)c1cccc(Oc2ccccc2)n1 (racemic) [Compound 11]

>  <Target Or System>
Musca domestica (houseflies - adults)

>  <mortality at 500 ppm>
80 to 100%

$$$$
>  <Compound>
Cc1ncc(C(C(=O)OC(C)c2cccc(Oc3ccccc3)n2)C(C)(C)C)cn1 (racemic) [Compound 205]

>  <Target Or System>
Musca domestica (houseflies - adults)

>  <mortality at 500 ppm>
< 50%

$$$$
>  <Compound>
CC(C)(C)C(=O)OCc1c(F)c(F)c(COC(=O)C(c2cnc(C(C)(C)C)nc2)C(C)(C)C)c(F)c1F (racemic) [Compound 172]

>  <Target Or System>
Musca domestica (houseflies - adults)

>  <mortality at 500 ppm>
< 50%

$$$$
>  <Compound>
CC(C)C(=O)OCc1c(F)c(F)c(COC(=O)C(c2cnc(C(C)(C)C)nc2)C(C)(C)C)c(F)c1F (racemic) [Compound 173]

>  <Target Or System>
Musca domestica (houseflies - adults)

>  <mortality at 500 ppm>
< 50%

$$$$
>  <Compound>
C[C@@H](OC(=O)[C@@H](c1cnc(N(C)C)nc1)C(C)(C)C)c1cccc(Oc2ccccc2)n1 (racemic) [Compound 198]

>  <Target Or System>
Musca domestica (houseflies - adults)

>  <mortality at 500 ppm>
< 50%

$$$$
>  <Compound>
COCc1c(F)c(F)c(COC(=O)C(c2cnc(-c3ccccc3)nc2)C(C)(C)C)c(F)c1F (racemic) [Compound 161]

>  <Target Or System>
Musca domestica (houseflies - adults)

>  <mortality at 500 ppm>
80 to 100%

$$$$
>  <Compound>
CSc1c(COC(=O)C(c2cnc(C(C)(C)C)nc2)C(C)(C)C)cc(F)c(C)c1F (racemic) [Compound 182]

>  <Target Or System>
Musca domestica (houseflies - adults)

>  <mortality at 500 ppm>
< 50%

$$$$
>  <Compound>
CC(C)(C)c1ncc(C(C(=O)OCc2c(F)c(F)c(CC=CCl)c(F)c2F)C(C)(C)C)cn1 (racemic) [Compound 14]

>  <Target Or System>
Musca domestica (houseflies - adults)

>  <mortality at 500 ppm>
80 to 100%

$$$$
>  <Compound>
COCc1c(F)c(F)c(COC(=O)C(c2cnc(C)nc2)C(C)(C)C)c(F)c1F (racemic) [Compound 120]

>  <Target Or System>
Musca domestica (houseflies - adults)

>  <mortality at 500 ppm>
80 to 100%

$$$$
>  <Compound>
COCc1c(F)c(F)c(COC(=O)C(c2cnc(C(C)(C)C)nc2)C(C)(C)C)c(F)c1OC (racemic) [Compound 217]

>  <Target Or System>
Musca domestica (houseflies - adults)

>  <mortality at 500 ppm>
80 to 100%

$$$$
